# Test system: E.f243
# procedure_summary: Antibacterial screening (MIC) of compounds of Example 2, E.f243
# Type: cell-based, Enterococcus faecium
# test_parameters: Enterococcus faecium; Example 2 compounds; enterococci strain E.f243; read-out: Antibacterial activity μg/mL, E.f243
measured_property: MIC (µg/mL)
Respond numerically; units are µg/mL and should not be typed.

In: // Input: C=CCOc1ccc2ccccc2c1-c1c(OCC(=O)N[C@H](CCCNC(=N)N)C(=O)Nc2cccc(C(=O)OCc3ccccc3)c2)ccc2ccccc12.Cl (atropisomer, axis not shown) . Output its MIC only.
Out: 62.5

In: Hello, please tell me recorded MIC for this one: C=CCOc1ccc(C[C@H](NC(=O)[C@@H](CCCNC(=N)N)NC(=O)COc2ccc3ccccc3c2-c2c(OCC=C)ccc3ccccc23)C(=O)OC)cc1.Cl (atropisomer, axis not shown)
Out: 62.5

In: Consider the molecule C=CC[C@H](NC(=O)[C@@H](CCCNC(=N)N)NC(=O)[C@@H](CCCCN)NC(=O)COc1ccc2ccccc2c1-c1c(OCCCc2ccccc2)ccc2ccccc12)C(=O)OCc1ccccc1.Cl.Cl (atropisomer, axis not shown) and give its recorded MIC.
Out: 62.5

In: Find the measured MIC of C=CC[C@H](NC(=O)[C@@H](CCCNC(=N)N)NC(=O)[C@@H](CCCCN)NC(=O)COc1ccc2ccccc2c1-c1c(OCCC(C)C)ccc2ccccc12)C(=O)OCc1ccccc1.Cl.Cl (atropisomer, axis not shown) and report it.
Out: 31.3

In: Please report MIC for the following molecule: C=CCOC(=O)c1cccc(NC(=O)[C@@H](CCCNC(=N)N)NC(=O)COc2ccc3ccccc3c2-c2c(OCC=C)ccc3ccccc23)c1.Cl (atropisomer, axis not shown)
Out: 62.5
